# protocolDescription: Saturation solubility in selected solvents/vehicles
# Assay type: physicochemical
# settings: aqueous with cosolvent or surfactant or cyclodextrin, thermodynamic from solid, n = 1; RO6871085 as hydrochloride salt, HU308 crystalline material; > = saturation not achieved; read-out: Solubility in Tocrisolve
quantityMeasured: solubility (mg/mL)
Dear colleague, please return just the value in mg/mL, with no unit written.

1. CNC(=O)[C@@H](NC(=O)c1cc(OCC2(C)COC2)c(C2CC2)cn1)C(C)(C)C | 15

Could you share which solubility value was measured for CCCCCCC(C)(C)c1cc(OC)c(C2=C[C@H]3CC[C@]2(CO)C3(C)C)c(OC)c1 [HU910, reference compound] ? 19.2

Could you share which solubility value was measured for CC(C)(C)c1nc(N2CC[C@H](O)C2)c2nnn(Cc3nnnn3C3CC3)c2n1 ? 1.3

Could you share which solubility value was measured for CCCCCCC(C)(C)c1cc(OC)c([C@H]2C=C(CO)[C@H]3C[C@@H]2C3(C)C)c(OC)c1 [HU308, reference compound] ? 1.6

* * *

# protocolDescription: pKa
# Assay type: physicochemical
# settings: read-out: pKa (basic)
quantityMeasured: pKa
// return a plain number; no unit text

Could you share which pKa value was measured for CC(C)(C)c1nc(N2CC[C@H](O)C2)c2nnn(Cc3nnnn3C3CC3)c2n1 ? 2.7

* * *

# protocolDescription: Chemical stability (aqueous stability assay ASTA)
# Format: physicochemical
# settings: aqueous buffer; pH 10, 2 h, 37 °C; read-out: Chemical Stability in Aqueous Buffer at pH 10 (% remaining after 2 h at 37 °C)
quantityMeasured: remaining at 2 h (%)
Dear colleague, please return just the value in %, with no unit written.

Some entries whose results are on file:
1) CNC(=O)[C@@H](NC(=O)c1cc(OCC2(C)COC2)c(C2CC2)cn1)C(C)(C)C | 100
2) CC(C)(C)c1nc(N2CC[C@H](O)C2)c2nnn(Cc3nnnn3C3CC3)c2n1 | 100
3) CCCCCCC(C)(C)c1cc(OC)c(C2=C[C@H]3CC[C@]2(CO)C3(C)C)c(OC)c1 [HU910, reference compound] | 93

Here is another molecule to look at.
Could you share which remaining at 2 h value was measured for Cc1nc([C@](C)(CC2CC2)NC(=O)c2cc(OCC(F)(F)F)c(C3CC3)cn2)no1 ? 99

* * *

# protocolDescription: Saturation solubility in selected solvents/vehicles
# Assay type: physicochemical
# settings: oil or lipid, thermodynamic from solid, n = 1; RO6871085 as hydrochloride salt, HU308 crystalline material; > = saturation not achieved; read-out: Solubility in MCT (Miglyol 812)
quantityMeasured: solubility (µg/mL)
Dear colleague, please return just the value in µg/mL, with no unit written.

1) Cc1nc([C@](C)(CC2CC2)NC(=O)c2cc(OCC(F)(F)F)c(C3CC3)cn2)no1 [RO6871085] | 2300

Could you share which solubility value was measured for CC(C)(C)c1nc(N2CC[C@H](O)C2)c2nnn(Cc3nnnn3C3CC3)c2n1 [RO6871304] ? 2300

* * *

Reported remaining at 2 h values for the following compounds.
# protocolDescription: Chemical stability (aqueous stability assay ASTA)
# Type: physicochemical
# settings: aqueous buffer; pH 1, 2 h, 37 °C; read-out: Chemical Stability in Aqueous Buffer at pH 1 (% remaining after 2 h at 37 °C)
Dear colleague, please return just the value in %, with no unit written.

1) CC(C)(C)c1nc(N2CC[C@H](O)C2)c2nnn(Cc3nnnn3C3CC3)c2n1 | 100
2) CCCCCCC(C)(C)c1cc(OC)c(C2=C[C@H]3CC[C@]2(CO)C3(C)C)c(OC)c1 [HU910, reference compound] | 94
3) CNC(=O)[C@@H](NC(=O)c1cc(OCC2(C)COC2)c(C2CC2)cn1)C(C)(C)C | 93

Here is another compound to look at.
Could you share which remaining at 2 h value was measured for Cc1nc([C@](C)(CC2CC2)NC(=O)c2cc(OCC(F)(F)F)c(C3CC3)cn2)no1 ? 99

Every entry's value here was drawn from paper PMC6767236.
